procedure-summary: Acute toxicity LD50, p.o.
assay-conditions: mouse, in vivo, po; p.o. in ddY mice
parameter-measured: LD50 (mg/kg)
Output spec: scalar in mg/kg, unitless text.

get_value(item= "COc1cc2c(c(OC)c1OC)-c1c(cc(OC)c(OC)c1OC)C[C@](C)(O)[C@@H](C)C2" , readout=LD50) returns 1450

Briefly, LD50 measured for "COc1cc2c(c(OC)c1OC)-c1c(cc(OC)c(OC)c1OC)C[C@H](C)[C@H](C)C2" : 2000

The recorded LD50 for entry COc1c2c(cc3c1-c1c(cc4c(c1OC)OCO4)CC(C)C(C)C3)OCO2 (centres unmarked) equals 2000

For reference, reported LD50 for COc1cc2c(c(OC)c1OC)-c1c(cc3c(c1OC)OCO3)CC(C)C(C)C2 (centres unmarked) stands at 2000

The value of LD50 measured for the compound COc1cc2c(c(OC)c1OC)-c1c(cc3c(c1OC)OCO3)CC(C)C(C)(O)C2 (centres unmarked) turned out to be 777
